Just for reference, ChEMBL document CHEMBL3352004 is where these values come from.

- assay.method.text: Elimination half life in Sprague-Dawley rat at 1 mg/kg, po
- Assay type: ADME, organism-based
- Parameters: dose 1 mg/kg, route oral
- condition.description: in vivo, read-out: beta t1/2 (converted)
metric: half-life (h)
Field: numeric (h). Do not append units.

Look over these answered cases.
| compound | metric | readout.value |
| --- | --- | --- |
| CC(C)Oc1ccc(COc2ccc3c(c2)cc2n3CCC2CC(=O)O)cc1C#N (stereo in doubt; 19a) | half-life | 3.99 |
| CC(C)Oc1ccc(COc2ccc3c(c2)c(Cl)c2n3CC[C@@H]2CC(=O)O)cc1C#N | half-life | 3.44 |
| CC(C)Oc1ccc(COc2ccc3c(c2)c(Cl)c2n3CC[C@@H]2CC(=O)O)cc1C(F)(F)F | half-life | 5.09 |

Let us examine a further case.
query: Name the reported half-life value associated with the compound O=C(O)CC1CCn2c1cc1cc(OCc3ccc(C4CCCC4)c(C(F)(F)F)c3)ccc12 (stereo in doubt; 12a)
result: 9.16
